B1: NELF-E aptamer (parent)
chain: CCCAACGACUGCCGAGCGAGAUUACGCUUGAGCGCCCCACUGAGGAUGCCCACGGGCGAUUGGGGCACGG

Variants of: B1
Measurement protocol: HiTS-RAP
Condition notes: with NELF-E (Drosophila)
Measurement label: pKd
Scale note: pKd = -log10(concentration in M).

Look over these answered cases.
1) G11U U29G :: 8.22
2) C12G C33U :: 8.22
3) U23G G45A :: 7.71

Ask: Provide only the value of recorded pKd for G20U U23G
Result: 8.20

Ask: Provide only the value of recorded pKd for U22G G54A
Result: 7.92
